- System: PPARg:RXRa 270nM:90nM, anti-RXR (NR concentration 270 nM, RXRa partner concentration 90 nM)
- test-protocol: PBM binding z-score (relative to random genomic background probes); higher = stronger binding; sequences stand for … in GC…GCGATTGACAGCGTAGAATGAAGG
Short version: PBM binding z-score at least 2 is Criterion met, less is Criterion not met.

sequence-record: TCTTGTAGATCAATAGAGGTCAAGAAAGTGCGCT
label-value: Criterion met
//
sequence-record: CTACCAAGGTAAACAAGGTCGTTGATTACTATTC
label-value: Criterion not met
//
sequence-record: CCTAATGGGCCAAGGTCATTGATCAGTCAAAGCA
label-value: Criterion met
//
sequence-record: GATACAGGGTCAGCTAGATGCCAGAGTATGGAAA
label-value: Criterion met
//
sequence-record: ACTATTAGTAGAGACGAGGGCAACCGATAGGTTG
label-value: Criterion not met
//
sequence-record: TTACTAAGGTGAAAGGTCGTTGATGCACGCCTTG
label-value: Criterion met
//
sequence-record: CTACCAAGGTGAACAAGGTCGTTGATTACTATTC
label-value: Criterion not met
//
sequence-record: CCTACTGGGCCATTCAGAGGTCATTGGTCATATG
label-value: Criterion met
//
sequence-record: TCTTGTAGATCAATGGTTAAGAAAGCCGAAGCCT
label-value: Criterion met
//
sequence-record: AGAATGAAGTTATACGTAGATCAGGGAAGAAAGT
label-value: Criterion not met
//
sequence-record: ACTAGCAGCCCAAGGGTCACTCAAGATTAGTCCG
label-value: Criterion met
//
sequence-record: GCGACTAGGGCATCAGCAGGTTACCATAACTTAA
label-value: Criterion not met
//
sequence-record: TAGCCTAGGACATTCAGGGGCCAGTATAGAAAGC
label-value: Criterion not met
//
sequence-record: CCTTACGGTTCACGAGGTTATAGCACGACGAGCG
label-value: Criterion met
//
sequence-record: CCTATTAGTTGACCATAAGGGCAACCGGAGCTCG
label-value: Criterion not met
//
sequence-record: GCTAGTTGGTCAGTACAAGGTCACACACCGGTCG
label-value: Criterion not met
//
sequence-record: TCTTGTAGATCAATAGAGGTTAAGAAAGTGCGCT
label-value: Criterion not met
//
sequence-record: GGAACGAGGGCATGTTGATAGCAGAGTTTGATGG
label-value: Criterion not met
//
sequence-record: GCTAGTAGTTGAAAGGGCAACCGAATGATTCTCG
label-value: Criterion met
//
sequence-record: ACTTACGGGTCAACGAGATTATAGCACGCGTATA
label-value: Criterion met
//
sequence-record: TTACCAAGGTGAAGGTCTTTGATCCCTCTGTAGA
label-value: Criterion met
//
sequence-record: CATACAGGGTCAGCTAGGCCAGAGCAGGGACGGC
label-value: Criterion met
//
sequence-record: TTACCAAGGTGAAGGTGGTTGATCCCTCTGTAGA
label-value: Criterion not met
//
sequence-record: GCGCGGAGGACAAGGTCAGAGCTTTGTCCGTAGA
label-value: Criterion not met
//
sequence-record: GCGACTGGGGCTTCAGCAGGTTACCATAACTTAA
label-value: Criterion not met
//
sequence-record: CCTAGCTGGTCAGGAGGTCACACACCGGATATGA
label-value: Criterion met
